Target: CSK (Homo sapiens, UniProt P41240)
Construct: purchased Eurofins DiscoverX KINOMEscan (scanTK)
Sequence (P41240 whole entry): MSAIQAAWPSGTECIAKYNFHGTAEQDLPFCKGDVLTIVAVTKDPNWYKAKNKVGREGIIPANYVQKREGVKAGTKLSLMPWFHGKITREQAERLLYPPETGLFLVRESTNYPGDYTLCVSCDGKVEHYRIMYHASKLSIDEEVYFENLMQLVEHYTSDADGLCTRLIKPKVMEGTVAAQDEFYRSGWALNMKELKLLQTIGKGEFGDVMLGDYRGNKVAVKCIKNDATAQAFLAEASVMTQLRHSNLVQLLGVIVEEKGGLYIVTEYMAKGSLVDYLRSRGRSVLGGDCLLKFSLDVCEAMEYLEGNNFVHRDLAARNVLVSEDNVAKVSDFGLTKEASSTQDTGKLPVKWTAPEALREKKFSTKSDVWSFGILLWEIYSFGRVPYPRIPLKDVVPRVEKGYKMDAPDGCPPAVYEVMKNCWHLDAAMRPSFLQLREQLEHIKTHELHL
Experiment: KINOMEscan ScanTK
Format: binding
Conditions: read-out: %Control @1000nM
quantityName: remaining binding at 1 µM (%)

INSERT INTO results (compound, readoutunits, recordedmeasurement) VALUES
  ('Cc1cnc(S(C)(=O)=O)nc1N1CCCC(n2nc(-c3ccc(Oc4ccccc4)cc3)c3c(N)ncnc32)C1 (centres unmarked)', '%', 6.6),
  ('COC(=O)c1cnc(S(C)(=O)=O)nc1N1CCCC(n2nc(-c3ccc(Oc4ccccc4)cc3)c3c(N)ncnc32)C1 (centres unmarked)', '%', 26),
  ('CNC(=O)c1cnc(S(C)(=O)=O)nc1N1CCCC(n2nc(-c3ccc(Oc4ccccc4)cc3)c3c(N)ncnc32)C1 (centres unmarked)', '%', 8.1),
  ('CCOC(=O)c1cnc(S(C)(=O)=O)nc1N1CCC[C@@H](n2nc(-c3ccc(Oc4ccccc4)cc3)c3c(N)ncnc32)C1', '%', 30),
  ('C=CC(=O)N1CCC[C@@H](n2nc(-c3ccc(Oc4ccccc4)cc3)c3c(N)ncnc32)C1 [Compound 1g, Ibrutinib, reference compound]', '%', 4.5);

====

Target: EPHA4 (Homo sapiens, UniProt P54764)
Construct: purchased Eurofins DiscoverX KINOMEscan (scanTK)
Assay: KINOMEscan ScanTK
Format: binding
Details: read-out: %Control @1000nM
As shown below, each of these compounds has a reported remaining binding at 1 µM value.
quantityName: remaining binding at 1 µM (%)

INSERT INTO results (compound, testedon, readoutunits, recordedmeasurement) VALUES
  ('COC(=O)c1cnc(S(C)(=O)=O)nc1N1CCCC(n2nc(-c3ccc(Oc4ccccc4)cc3)c3c(N)ncnc32)C1 (centres unmarked)', 'EPHA4 (Homo sapiens, UniProt P54764)', '%', 98),
  ('CCOC(=O)c1cnc(S(C)(=O)=O)nc1N1CCC[C@@H](n2nc(-c3ccc(Oc4ccccc4)cc3)c3c(N)ncnc32)C1', 'EPHA4 (Homo sapiens, UniProt P54764)', '%', 100),
  ('C=CC(=O)N1CCC[C@@H](n2nc(-c3ccc(Oc4ccccc4)cc3)c3c(N)ncnc32)C1 [Compound 1g, Ibrutinib, reference compound]', 'EPHA4 (Homo sapiens, UniProt P54764)', '%', 91),
  ('CNC(=O)c1cnc(S(C)(=O)=O)nc1N1CCCC(n2nc(-c3ccc(Oc4ccccc4)cc3)c3c(N)ncnc32)C1 (centres unmarked)', 'EPHA4 (Homo sapiens, UniProt P54764)', '%', 100),
  ('Cc1cnc(S(C)(=O)=O)nc1N1CCCC(n2nc(-c3ccc(Oc4ccccc4)cc3)c3c(N)ncnc32)C1 (centres unmarked)', 'EPHA4 (Homo sapiens, UniProt P54764)', '%', 100);

====

Biological target: JAK3(JH1domain-catalytic) (Homo sapiens, UniProt P52333)
Construct: JAK3(JH1domain-catalytic); purchased Eurofins DiscoverX KINOMEscan (scanTK)
Sequence (P52333 822-1124 limits assumed): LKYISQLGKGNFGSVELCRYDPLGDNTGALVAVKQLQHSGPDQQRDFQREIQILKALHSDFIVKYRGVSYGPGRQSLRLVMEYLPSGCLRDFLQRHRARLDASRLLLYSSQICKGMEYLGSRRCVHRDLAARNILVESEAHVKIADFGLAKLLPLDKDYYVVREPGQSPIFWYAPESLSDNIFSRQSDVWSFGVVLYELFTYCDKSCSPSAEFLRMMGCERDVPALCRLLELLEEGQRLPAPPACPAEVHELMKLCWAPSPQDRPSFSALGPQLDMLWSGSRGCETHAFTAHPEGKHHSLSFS
Experiment: KINOMEscan ScanTK
Type: binding
Conditions: ScanTK, 1 μM
Below, each of the compounds is paired with its reported inhibition at 1 µM value.
quantityName: inhibition at 1 µM

INSERT INTO results (compound, testedon, recordedmeasurement) VALUES
  ('Cc1cnc(S(C)(=O)=O)nc1N1CCCC(n2nc(-c3ccc(Oc4ccccc4)cc3)c3c(N)ncnc32)C1 (stereo not drawn)', 'JAK3(JH1domain-catalytic) (Homo sapiens, UniProt P52333)', '< 1%'),
  ('CCOC(=O)c1cnc(S(C)(=O)=O)nc1N1CCC[C@@H](n2nc(-c3ccc(Oc4ccccc4)cc3)c3c(N)ncnc32)C1', 'JAK3(JH1domain-catalytic) (Homo sapiens, UniProt P52333)', '< 1%'),
  ('COC(=O)c1cnc(S(C)(=O)=O)nc1N1CCCC(n2nc(-c3ccc(Oc4ccccc4)cc3)c3c(N)ncnc32)C1 (stereo not drawn)', 'JAK3(JH1domain-catalytic) (Homo sapiens, UniProt P52333)', '< 1%');

====

Target: FLT3(D835Y) (Homo sapiens, UniProt P36888, D835Y)
Construct: purchased Eurofins DiscoverX KINOMEscan (scanTK)
Assay: KINOMEscan ScanTK
Format: binding
Details: @1000nM
A collection of compounds and their measured difference in %Control versus compound Ib at 1 µM
quantityName: difference in %Control versus compound Ib at 1 µM (%)

INSERT INTO assay_data (compound, testedon, recordedmeasurement) VALUES
  ('COC(=O)c1cnc(S(C)(=O)=O)nc1N1CCCC(n2nc(-c3ccc(Oc4ccccc4)cc3)c3c(N)ncnc32)C1 (stereo not drawn) [Compound 8b]', 'FLT3(D835Y) (Homo sapiens, UniProt P36888, D835Y)', 18),
  ('CCOC(=O)c1cnc(S(C)(=O)=O)nc1N1CCC[C@@H](n2nc(-c3ccc(Oc4ccccc4)cc3)c3c(N)ncnc32)C1 [Compound 8c]', 'FLT3(D835Y) (Homo sapiens, UniProt P36888, D835Y)', 50),
  ('CNC(=O)c1cnc(S(C)(=O)=O)nc1N1CCCC(n2nc(-c3ccc(Oc4ccccc4)cc3)c3c(N)ncnc32)C1 (stereo not drawn) [Compound 8d]', 'FLT3(D835Y) (Homo sapiens, UniProt P36888, D835Y)', 10);

====

Biological target: EGFR(S752-I759del) (Homo sapiens, UniProt P00533, DEL752-759)
Construct: purchased Eurofins DiscoverX KINOMEscan (scanTK)
Sequence (P00533 with tags, fused parts or gaps DEL752-759 limits assumed): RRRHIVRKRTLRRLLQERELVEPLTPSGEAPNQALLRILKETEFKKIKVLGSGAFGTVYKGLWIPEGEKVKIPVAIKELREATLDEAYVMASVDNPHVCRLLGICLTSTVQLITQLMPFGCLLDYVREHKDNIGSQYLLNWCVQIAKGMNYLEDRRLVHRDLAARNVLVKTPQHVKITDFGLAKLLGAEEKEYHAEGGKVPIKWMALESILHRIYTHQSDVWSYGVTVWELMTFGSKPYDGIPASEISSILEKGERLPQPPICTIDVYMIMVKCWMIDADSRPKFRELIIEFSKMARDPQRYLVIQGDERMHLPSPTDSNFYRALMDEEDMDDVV
Test: KINOMEscan ScanTK
Format: binding
Details: @1000nM
Readings of difference in %Control versus compound Ib at 1 µM for the listed compounds
quantityName: difference in %Control versus compound Ib at 1 µM (%)

INSERT INTO assay_data (compound, recordedmeasurement) VALUES
  ('CCOC(=O)c1cnc(S(C)(=O)=O)nc1N1CCC[C@@H](n2nc(-c3ccc(Oc4ccccc4)cc3)c3c(N)ncnc32)C1', 98),
  ('CNC(=O)c1cnc(S(C)(=O)=O)nc1N1CCCC(n2nc(-c3ccc(Oc4ccccc4)cc3)c3c(N)ncnc32)C1 (stereo not drawn)', 67),
  ('Cc1cnc(S(C)(=O)=O)nc1N1CCCC(n2nc(-c3ccc(Oc4ccccc4)cc3)c3c(N)ncnc32)C1 (stereo not drawn)', 98);

====

Target: INSRR (Homo sapiens)
Construct: purchased Eurofins DiscoverX KINOMEscan (scanTK)
Sequence (P14616 27-1297): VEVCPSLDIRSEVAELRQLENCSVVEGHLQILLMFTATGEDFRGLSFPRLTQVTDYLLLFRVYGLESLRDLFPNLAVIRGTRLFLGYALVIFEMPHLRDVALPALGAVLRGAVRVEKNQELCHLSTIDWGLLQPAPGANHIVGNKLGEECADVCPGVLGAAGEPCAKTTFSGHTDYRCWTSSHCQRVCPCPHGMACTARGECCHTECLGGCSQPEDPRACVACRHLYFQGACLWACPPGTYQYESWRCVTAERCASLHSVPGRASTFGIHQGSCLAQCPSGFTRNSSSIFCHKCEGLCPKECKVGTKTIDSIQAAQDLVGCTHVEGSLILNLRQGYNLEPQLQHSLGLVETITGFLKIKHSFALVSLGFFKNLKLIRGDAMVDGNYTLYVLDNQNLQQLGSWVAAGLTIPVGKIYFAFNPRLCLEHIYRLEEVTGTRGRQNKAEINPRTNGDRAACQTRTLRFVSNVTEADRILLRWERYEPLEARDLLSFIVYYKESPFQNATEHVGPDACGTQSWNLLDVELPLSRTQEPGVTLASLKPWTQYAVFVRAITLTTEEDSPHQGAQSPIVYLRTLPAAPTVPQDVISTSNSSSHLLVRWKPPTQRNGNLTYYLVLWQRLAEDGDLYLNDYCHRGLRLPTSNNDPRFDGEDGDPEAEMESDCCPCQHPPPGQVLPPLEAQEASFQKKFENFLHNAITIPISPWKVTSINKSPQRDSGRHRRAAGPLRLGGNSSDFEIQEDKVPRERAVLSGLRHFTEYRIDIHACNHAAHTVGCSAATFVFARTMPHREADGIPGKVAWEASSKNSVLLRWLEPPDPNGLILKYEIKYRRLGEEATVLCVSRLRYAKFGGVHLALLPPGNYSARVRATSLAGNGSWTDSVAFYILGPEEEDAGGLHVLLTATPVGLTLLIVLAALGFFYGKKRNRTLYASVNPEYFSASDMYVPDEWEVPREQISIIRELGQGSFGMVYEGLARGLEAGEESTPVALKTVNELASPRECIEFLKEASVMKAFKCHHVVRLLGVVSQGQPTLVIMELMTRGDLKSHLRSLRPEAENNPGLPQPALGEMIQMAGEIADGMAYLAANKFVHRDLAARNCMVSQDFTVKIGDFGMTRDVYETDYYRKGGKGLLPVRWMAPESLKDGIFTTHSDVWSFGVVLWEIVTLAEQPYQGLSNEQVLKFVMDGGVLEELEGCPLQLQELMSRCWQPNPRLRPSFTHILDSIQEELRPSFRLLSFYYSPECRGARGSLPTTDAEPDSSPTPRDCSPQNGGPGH
Assay: KINOMEscan ScanTK
Assay type: binding
Conditions: @1000nM
quantityName: difference in %Control versus compound Ib at 1 µM

INSERT INTO assay_data (compound, recordedmeasurement) VALUES
  ('CNC(=O)c1cnc(S(C)(=O)=O)nc1N1CCCC(n2nc(-c3ccc(Oc4ccccc4)cc3)c3c(N)ncnc32)C1 (stereo not drawn) [Compound 8d]', '-8%'),
  ('Cc1cnc(S(C)(=O)=O)nc1N1CCCC(n2nc(-c3ccc(Oc4ccccc4)cc3)c3c(N)ncnc32)C1 (stereo not drawn) [Compound 8a]', '-2%'),
  ('COC(=O)c1cnc(S(C)(=O)=O)nc1N1CCCC(n2nc(-c3ccc(Oc4ccccc4)cc3)c3c(N)ncnc32)C1 (stereo not drawn) [Compound 8b]', '0%');

====

# maps each entry to its remaining activity at 0.1 µM
Biological target: wild-type BTK (Homo sapiens)
Sequence (Q06187 whole entry): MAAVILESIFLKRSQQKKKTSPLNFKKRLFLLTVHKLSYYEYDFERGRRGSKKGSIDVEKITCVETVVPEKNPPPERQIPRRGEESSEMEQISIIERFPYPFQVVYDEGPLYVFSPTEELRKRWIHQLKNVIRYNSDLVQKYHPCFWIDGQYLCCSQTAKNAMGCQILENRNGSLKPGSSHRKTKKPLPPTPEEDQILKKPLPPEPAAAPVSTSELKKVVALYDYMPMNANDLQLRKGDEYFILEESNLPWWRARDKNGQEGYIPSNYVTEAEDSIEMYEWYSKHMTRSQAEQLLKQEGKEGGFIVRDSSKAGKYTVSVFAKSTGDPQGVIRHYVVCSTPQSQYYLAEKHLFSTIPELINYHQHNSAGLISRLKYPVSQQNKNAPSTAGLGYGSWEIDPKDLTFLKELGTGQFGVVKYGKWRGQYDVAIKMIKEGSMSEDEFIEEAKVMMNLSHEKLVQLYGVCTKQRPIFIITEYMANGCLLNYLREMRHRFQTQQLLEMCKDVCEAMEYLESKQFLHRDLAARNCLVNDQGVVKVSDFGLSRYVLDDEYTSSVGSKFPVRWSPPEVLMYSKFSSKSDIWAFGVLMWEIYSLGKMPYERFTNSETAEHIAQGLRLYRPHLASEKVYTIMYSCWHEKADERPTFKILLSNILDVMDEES
Experiment: BTK in vitro activity assay (ADP-Glo, poly-Glu:Tyr phosphorylation, TCEP)
Conditions: read-out: Remaining BTK activity (%)
quantityName: remaining activity at 0.1 µM (%)

INSERT INTO results (molecule, readoutunits, recordedmeasurement) VALUES
  ('CNC(=O)c1cnc(SC)nc1N1CCCC(n2nc(-c3ccc(Oc4ccccc4)cc3)c3c(N)ncnc32)C1 (centres unmarked)', '%', 78),
  ('CSc1ncc(C(=O)N2CCC[C@@H](n3nc(-c4ccc(Oc5ccccc5)cc4)c4c(N)ncnc43)C2)cn1', '%', 83),
  ('Nc1ncnc2c1c(-c1ccc(Oc3ccccc3)cc1)nn2[C@H]1CCCN(C(=O)c2ccnc(S(=O)(=O)c3ccccc3)n2)C1', '%', 40),
  ('CS(=O)(=O)c1ncc(Cl)c(C(=O)N2CCCC(n3nc(-c4ccc(Oc5ccccc5)cc4)c4c(N)ncnc43)C2)n1 (stereo in doubt)', '%', 17),
  ('CSc1ncc(C)c(N2CCCC(n3nc(-c4ccc(Oc5ccccc5)cc4)c4c(N)ncnc43)C2)n1 (centres unmarked)', '%', 40),
  ('Cc1cnc(S(C)(=O)=O)nc1N1CCCC(n2nc(-c3ccc(Oc4ccccc4)cc3)c3c(N)ncnc32)C1 (centres unmarked)', '%', 4),
  ('Nc1ncnc2c1c(-c1ccc(Oc3ccccc3)cc1)nn2[C@@H]1CCCN(C(=O)c2ccnc(Sc3ccccc3)n2)C1', '%', 98),
  ('CCOC(=O)c1cnc(SC)nc1N1CCC[C@@H](n2nc(-c3ccc(Oc4ccccc4)cc3)c3c(N)ncnc32)C1', '%', 105);

====

Target: ALK(C1156Y) (Homo sapiens, UniProt Q9UM73, C1156Y)
Construct: purchased Eurofins DiscoverX KINOMEscan (scanTK)
Sequence (Q9UM73 19-1620 C1156Y): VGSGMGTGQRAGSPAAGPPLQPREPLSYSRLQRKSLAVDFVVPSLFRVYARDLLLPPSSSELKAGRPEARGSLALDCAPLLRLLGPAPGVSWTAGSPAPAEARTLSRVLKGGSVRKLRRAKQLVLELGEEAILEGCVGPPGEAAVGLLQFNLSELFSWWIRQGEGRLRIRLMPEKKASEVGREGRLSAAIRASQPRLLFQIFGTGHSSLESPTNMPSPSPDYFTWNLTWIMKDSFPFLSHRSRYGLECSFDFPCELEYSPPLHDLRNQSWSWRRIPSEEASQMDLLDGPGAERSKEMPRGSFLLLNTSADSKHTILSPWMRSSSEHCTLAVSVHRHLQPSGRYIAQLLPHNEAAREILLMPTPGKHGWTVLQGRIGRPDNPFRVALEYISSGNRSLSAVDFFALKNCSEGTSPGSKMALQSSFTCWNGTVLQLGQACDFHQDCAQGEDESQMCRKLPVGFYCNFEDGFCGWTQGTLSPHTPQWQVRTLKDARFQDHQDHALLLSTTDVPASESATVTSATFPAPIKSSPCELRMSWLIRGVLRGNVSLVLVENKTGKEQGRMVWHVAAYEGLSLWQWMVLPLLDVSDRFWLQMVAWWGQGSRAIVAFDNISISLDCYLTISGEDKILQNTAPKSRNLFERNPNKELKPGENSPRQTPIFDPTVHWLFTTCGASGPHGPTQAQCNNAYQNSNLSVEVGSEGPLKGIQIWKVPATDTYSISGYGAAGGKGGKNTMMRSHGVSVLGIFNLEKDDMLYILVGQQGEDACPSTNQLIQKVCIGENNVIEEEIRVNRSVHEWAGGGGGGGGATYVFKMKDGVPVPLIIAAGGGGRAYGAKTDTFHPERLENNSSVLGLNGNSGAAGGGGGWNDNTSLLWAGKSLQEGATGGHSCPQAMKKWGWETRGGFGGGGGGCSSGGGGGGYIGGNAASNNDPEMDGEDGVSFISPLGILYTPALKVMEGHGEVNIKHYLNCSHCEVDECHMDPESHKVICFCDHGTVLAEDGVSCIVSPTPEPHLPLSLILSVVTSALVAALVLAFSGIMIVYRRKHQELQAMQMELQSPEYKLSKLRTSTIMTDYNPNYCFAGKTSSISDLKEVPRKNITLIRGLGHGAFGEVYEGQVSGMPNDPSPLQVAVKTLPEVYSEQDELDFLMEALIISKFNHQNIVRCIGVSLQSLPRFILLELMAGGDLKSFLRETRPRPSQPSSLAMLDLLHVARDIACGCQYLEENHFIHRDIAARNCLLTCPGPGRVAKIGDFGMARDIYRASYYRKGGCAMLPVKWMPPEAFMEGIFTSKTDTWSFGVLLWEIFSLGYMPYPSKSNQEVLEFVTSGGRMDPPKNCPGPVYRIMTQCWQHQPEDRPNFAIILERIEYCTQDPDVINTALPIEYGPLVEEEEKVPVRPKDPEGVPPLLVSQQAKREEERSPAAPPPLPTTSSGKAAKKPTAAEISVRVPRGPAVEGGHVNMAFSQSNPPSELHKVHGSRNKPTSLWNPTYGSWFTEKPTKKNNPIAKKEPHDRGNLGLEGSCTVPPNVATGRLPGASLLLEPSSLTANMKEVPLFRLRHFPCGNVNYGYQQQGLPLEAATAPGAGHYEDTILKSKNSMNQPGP
Assay: KINOMEscan ScanTK
Assay type: binding
Details: @1000nM, read-out: %Control
Each record here notes measured remaining binding at 1 µM.
quantityName: remaining binding at 1 µM (%)

INSERT INTO measurements (compound, recordedmeasurement) VALUES
  ('COC(=O)c1cnc(S(C)(=O)=O)nc1N1CCCC(n2nc(-c3ccc(Oc4ccccc4)cc3)c3c(N)ncnc32)C1 (stereo not drawn)', 90),
  ('Cc1cnc(S(C)(=O)=O)nc1N1CCCC(n2nc(-c3ccc(Oc4ccccc4)cc3)c3c(N)ncnc32)C1 (stereo not drawn)', 85),
  ('CNC(=O)c1cnc(S(C)(=O)=O)nc1N1CCCC(n2nc(-c3ccc(Oc4ccccc4)cc3)c3c(N)ncnc32)C1 (stereo not drawn)', 88);

Values from paper PMC11345841
